Could you please report measured kon for the items listed next?
- SYSTEM TESTED: T1, human C1s (human, UniProt P09871 16-688)
- T1 construct: Analyte in the Biacore assays; also called hC1s; serum-derived human C1s (CompTech)
- T1 sequence: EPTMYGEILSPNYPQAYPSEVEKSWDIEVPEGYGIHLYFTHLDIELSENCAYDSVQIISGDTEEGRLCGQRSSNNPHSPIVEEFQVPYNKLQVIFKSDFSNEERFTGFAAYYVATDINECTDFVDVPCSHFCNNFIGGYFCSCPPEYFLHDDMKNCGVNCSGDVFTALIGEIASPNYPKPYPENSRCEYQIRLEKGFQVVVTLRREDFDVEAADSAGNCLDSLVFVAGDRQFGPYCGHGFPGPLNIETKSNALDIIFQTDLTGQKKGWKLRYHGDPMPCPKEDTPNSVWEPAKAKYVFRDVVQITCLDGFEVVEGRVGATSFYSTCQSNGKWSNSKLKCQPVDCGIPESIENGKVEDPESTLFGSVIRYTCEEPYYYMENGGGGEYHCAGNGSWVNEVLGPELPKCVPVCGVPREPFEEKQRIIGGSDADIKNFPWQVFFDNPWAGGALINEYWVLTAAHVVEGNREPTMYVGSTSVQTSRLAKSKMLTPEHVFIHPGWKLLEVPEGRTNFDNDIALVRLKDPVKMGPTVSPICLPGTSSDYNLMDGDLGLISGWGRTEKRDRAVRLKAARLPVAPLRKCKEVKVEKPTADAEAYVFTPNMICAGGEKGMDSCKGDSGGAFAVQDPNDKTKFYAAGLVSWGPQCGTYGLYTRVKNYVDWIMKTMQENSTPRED
- ASSAY DETAILS: SPR (Biacore T200, 37C), Ab captured on protein A/G; pH 5.8, 3 uM Ca
Give the value in M⁻¹ s⁻¹ but do not write M⁻¹ s⁻¹ after it.

Consider C1_IPN92H0079-SG4GK/IPN93L0024-SK1 (antibody, human IgG4 S228P, kappa, name in Kabat numbering, V domains shown, Substitutions from IPN009VH2, Kabat numbering; also called IPN92H0079/IPN93L0024) VH: EVMLVESGGGLVKPGGSLRLSCAASGFTFSNKAMSWVRQAPGKGLEWVATISSGGSHTYYLDSVKGRFTISRDNSKDTLYLQMNSLRAEDTALYYCARLFTGHAMDYWGQGTLVTVSS VL: QIVLTQSPATLSLSPGERATLSCTASSSVSSSYLHWYQQKPGKAPKLWIYSTSNLASGVPSRFSGSGSGTDYTLTISSLQPEDFATYYCHQYYRLHPITFGQGTKLEIKR . Its measured kon is 594000

So for C1_IPN92H0144-SG4GK/IPN93L0024-SK1 (antibody, human IgG4 S228P, kappa, name in Kabat numbering, V domains shown, Substitutions from IPN009VH2, Kabat numbering; also called IPN92H0144/IPN93L0024) VH: EVMLVESGGGLVKPGGSLRLSCAASGFTFSNYAMSWVRQAPGKGLEWVATISSGGSKTYYLDSVKGRFTISRDNSKDTLYLQMNSLRAEDTALYYCARLFTGHAMDYWGQGTLVTVSS VL: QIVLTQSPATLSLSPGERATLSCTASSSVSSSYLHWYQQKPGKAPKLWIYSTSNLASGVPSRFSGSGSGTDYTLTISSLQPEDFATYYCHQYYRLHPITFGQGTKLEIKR , the logged kon turned out to be 562000
